- Test system: ACHN renal
- experimentalProtocol: NCI tumour cell line growth inhibition, 48 h; in the data active = GI50 below about 0.43 µM; inactive = the rest
Please reply with one of these outcomes: True (active), False (inactive)

>>> answerlabel("O=C(CCN1CCCC1)Nc1ccc2c(NCCCCc3ccccc3)c3ccccc3nc2c1")
"False"

Which result was noted for this compound in the test: Cc1ccccc1NC(=O)NC(CC(N)=O)c1ccc2c(c1)nc(-c1cccc(Oc3ccc(C(C)(C)C)cc3)c1)n2CCCN1CCCCC1C (centres undefined)
False

Assay outcome for CCN1C(=O)N(c2c(F)c(OC)cc(OC)c2F)Cc2cnc3[nH]c(CN4CCOCC4)cc3c21 : what was it?
False

###

- Tested on: ACHN renal
- experimentalProtocol: NCI tumour cell line growth inhibition, 48 h
measuredAttribute: TGI

Some entries whose results are on file:
>>> experimentalresult("Cc1cc2c(=O)cc(-c3ccc(Cl)cc3)oc2c(C(=O)O)c1C")
"> 100 µM"
>>> experimentalresult("COc1ccc2c(CNCCCCO)cc3cc4c(cc3c2c1)OCO4")
"3.7 µM"

Sample Cn1c(=O)c(Cc2ccc(F)cc2F)cc2cnc(NC3CCOCC3)nc21 — what was its TGI?
> 25 µM

Sample CSC(=S)N/N=C(\C)c1ccccn1 — what was its TGI?
11.8 µM

Suppose we examine the molecule CCCNc1nc(-c2ccc(OC)cc2)nc2ccccc12 ; what TGI value has been reported?
33.3 µM

Fill in: TGI of COc1nc2c(nc(N)n2C2OC(CO)C(O)C(O)C2O)c(=O)n1C (stereo unspecified) is ___
> 100 µM
